ASSAY TARGET: rabbit activated Protein C (rabbit) (UniProt Q28661)
ASSAY TEXT: ELISA, hIgG1

# BINDER, EC50 (nM)
records = [
    ("T46J23-hIgG1 (antibody, V domains shown, also called T46J23-IgG) VH: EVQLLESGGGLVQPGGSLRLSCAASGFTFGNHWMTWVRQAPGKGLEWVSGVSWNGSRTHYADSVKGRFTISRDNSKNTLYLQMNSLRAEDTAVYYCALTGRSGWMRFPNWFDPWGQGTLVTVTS VL: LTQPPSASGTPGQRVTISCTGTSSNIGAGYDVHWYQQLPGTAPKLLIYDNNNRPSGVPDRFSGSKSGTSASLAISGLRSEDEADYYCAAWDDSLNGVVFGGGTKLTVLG", 1.7),
    ("C7I7 hIgG1 (antibody, V domains shown, also called C717-IgG) VH: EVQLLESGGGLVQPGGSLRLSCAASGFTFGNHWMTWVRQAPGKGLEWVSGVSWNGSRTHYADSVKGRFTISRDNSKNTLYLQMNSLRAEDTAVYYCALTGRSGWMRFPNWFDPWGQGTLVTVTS VL: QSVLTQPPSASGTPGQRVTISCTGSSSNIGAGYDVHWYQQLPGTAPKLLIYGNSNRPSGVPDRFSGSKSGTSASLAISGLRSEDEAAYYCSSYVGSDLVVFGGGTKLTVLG", 2),
    ("C7A23 hIgG1 (antibody, V domains shown, also called C7A23-IgG) VH: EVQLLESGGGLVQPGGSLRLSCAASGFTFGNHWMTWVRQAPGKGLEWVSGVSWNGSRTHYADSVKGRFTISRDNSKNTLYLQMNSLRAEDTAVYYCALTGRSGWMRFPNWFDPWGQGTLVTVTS VL: QSVLTQPPSASGTPGQRVTISCSGSSSNIGNNYVSWYQQLPGTAPKLLIYRNNQRPSGVPDRFSGSKSGTSASLAISGLRSEDEADYYCQSYDSDLSGPYVLFGGGTKLTVLG", 7),
]
